Give measured growth for each item. Keep answers brief.
Test system: RPMI-8226 leukemia
Assay: NCI-60 one-dose screen, 48 h (100 = growth as untreated, 0 = no growth, -100 = all killed)
Settings: 10 µM unless noted
The panel holds about 83,000 compounds, 20% with a hit somewhere; the sample as a whole holds those more often.
Please respond with the number in % and leave the unit unwritten.

Input line: Please look up its growth: `c1ccc2c[n+](Cc3ccc4ccccc4n3)ccc2c1`
Output line: 57.2

Input line: Request the reported growth associated with `Cc1cccc(Cl)c1N`
Output line: 120

Input line: // growth lookup, key: `COc1ccc(S(=O)(=O)c2ccc(F)cc2)cc1`
Output line: 80.7

Input line: I have this molecule here, `Cc1cc(=NO)cc(C)n1O` , and I need its recorded growth.
Output line: 103

Input line: Please give the measured growth for this molecule: `COCCNC(C)=O`
Output line: 114

====

I'd be grateful if you could share measured growth for these entries.
System: SK-MEL-28 melanoma
Assay: NCI-60 one-dose screen, 48 h (100 = growth as untreated, 0 = no growth, -100 = all killed)
Conditions: 10 µM unless noted
About 83,000 compounds went through this panel and 20% of them were active in at least one assay; those are over-represented in the sample as a whole.
API: value field is a number in %; no unit string.

Input line: So what's the measured growth for this one? `Cc1cc(NC(=O)NC(=O)c2ccccc2N(C)C)ccc1Oc1ncc(Br)cn1`
Output line: 68.1

Input line: Given the molecule `N#Cc1c[nH]n2ccnc12` , what is its reported growth?
Output line: 107

Input line: Dear colleague, I am looking for the recorded growth of the following molecule: `Cc1ccc([N+](=O)[O-])cc1Br`
Output line: 104

Input line: For the molecule shown here, `CC1(C)CC(=O)NC1=O` , give the reported growth.
Output line: 105

Input line: Can you share its growth? I mean this molecule: `CCNCc1ccccc1`
Output line: 96.9

Input line: # growth lookup, item `Cc1c(O)nc(N)[nH]c1=O`
Output line: 110

====

Tested on: SF-539 CNS
Test: NCI-60 one-dose screen, 48 h (100 = growth as untreated, 0 = no growth, -100 = all killed)
Settings: 10 µM unless noted
Compounds without any hit were thinned out: in the full panel of roughly 83,000, 20% have a hit.
measurement label: growth (%)
Give a bare numeral; the unit % is implied.

Input line: Please provide the recorded growth for CN1C2C=CC(=O)C1C1C(=O)N(c3ccccc3)C(=O)C12 (configuration not stated) , tested on SF-539 CNS.
Output line: 66.5

Input line: # value lookup — system SF-539 CNS, readout growth, item `CN(C=O)c1ccccc1`
Output line: 92.9

Input line: Enter reported growth observed with SF-539 CNS for `CS(=O)(=O)c1nsc(N)n1`
Output line: 102

Input line: // lookup growth | system=SF-539 CNS | key= `N=c1sc2ccccc2n1CC(=O)O`
Output line: 101

Input line: Notebook entry, SF-539 CNS assay: growth of O=C(N=C1C(=O)C2(CCCCC2)C2(N=C(c3ccccc3)OC2=O)C12CCCCC2)c1ccccc1 (configuration not stated) = ?
Output line: 82.3

Input line: Find the measured growth: item `O=c1[nH]c(=S)[nH]n1C(=S)n1[nH]c(=S)[nH]c1=O` , target or system SF-539 CNS.
Output line: 110

Input line: Missing value: growth, SF-539 CNS, entry CC(C)=NOC(C)C(=O)O (configuration not stated) . Fill in?
Output line: 102

====

Tested on: DU-145 prostate
Test: NCI-60 one-dose screen, 48 h (100 = growth as untreated, 0 = no growth, -100 = all killed)
Details: 10 µM unless noted
This is part of a sample that, as a whole, favours compounds with a hit. Of some 83,000 tested, about 20% had one in any assay.
measurement label: growth (%)
Field: numeric (%). Do not append units.

Input line: Item `OCc1ccccc1F` has what recorded growth?
Output line: 11.4

Input line: Would you mind telling me what growth value was observed for `CCOP(=O)(OCC)/C(C#N)=C/c1c(C)[nH]c2ccccc12` ?
Output line: 107

Input line: So what's the measured growth for this one? CN(C)CC(CN(C)C)C(O)c1ccccc1 (stereo not drawn)
Output line: 110

Input line: // lookup growth for `C/C=C(/C(=O)NC(N)=O)C(C)C`
Output line: 105

Input line: State the recorded growth for this entry: `Cc1cnc(N)s1`
Output line: 106

Input line: Need growth, item `C=CCN1C(=O)c2ccccc2C1=O`
Output line: 107

Input line: Any idea what growth was measured for `O=C1c2ccccc2CN1c1ccccc1` ?
Output line: 115

Input line: Value lookup for growth; key = `Cc1nc(Nc2ccc(Cl)cc2)c2cnn(-c3ccccc3)c2n1`
Output line: 107

Input line: Entry `CCn1c2ccc(N(C)C)cc2c2cc(N(C)C)ccc21` : reported growth = ?
Output line: 108

Input line: Requested read-out: growth. Entry: `c1ccc2c[n+](Cc3ccc4ccccc4n3)ccc2c1`
Output line: 99.8

Input line: Which value of growth has been reported for `CCOC(=O)CN1CCC(C(=O)OCC)CC1` in the records?
Output line: 118

Input line: Looking for the measured growth of `O=C(O)c1ccc2c3ccc(C(=O)O)c4c(C(=O)O)ccc(c5ccc(C(=O)O)c1c25)c43` , can you help?
Output line: 112

Input line: Query (compound): CC1NC(C)c2ccc3ccccc3c2O1 (stereo not drawn) ; field requested: growth
Output line: 104

====

Tested on: SF-539 CNS
Test: NCI-60 one-dose screen, 48 h
Conditions: 10 µM unless noted
Compounds without any hit were thinned out: in the full panel of roughly 83,000, 20% have a hit. The source made the active and inactive calls. Rule for the calls: active = growth percent below 10; inactive = the rest.
Would you mind answering with one of these outcomes? active, inactive

Input line: Record lookup: outcome of this test for O=C1c2ccccc2C(c2ccccc2)C1c1ccccc1 (centres undefined) ?
Output line: inactive

Input line: // param item: `O=C1c2ccccc2CN1c1ccccc1` ; yields the recorded call
Output line: inactive

Input line: // outcome(item) with item = `Nc1ccc(Cl)c(S(=O)(=O)O)c1`
Output line: inactive

Input line: For `CCc1ccccc1-n1[nH]c(C)c(C=N)c1=O` , which call appears in the assay record?
Output line: inactive

Input line: Status in this test for CCOP(C)(=O)/C(Cc1ccc(OC)c(OC)c1)=N\O (centres undefined) ?
Output line: inactive

Input line: Tell me the recorded outcome of this test for `COc1ccc(CCN=Cc2ccc(Cl)cc2)cc1OC` .
Output line: inactive

Input line: Lab log entry: OC1CCCN(Cc2ccccc2)C1 (centres undefined) — outcome as called in the assay?
Output line: inactive

Input line: What classification did CC1CC(O)CC(C)(C)C1.CC1CC(O)CC(C)(C)C1.CC1CC(O)CC(C)(C)C1.CC1CC(O)CC(C)(C)C1.[Ti] (centres undefined) end up with in this test?
Output line: inactive

Input line: What was the test verdict on `O=c1[nH]c(=O)c2[nH]c(=O)[nH]c2[nH]1` ?
Output line: inactive

Input line: Lab log entry: COCCCNC1=C(C#N)C(=O)NC(c2cccs2)S1 (centres undefined) — outcome as called in the assay?
Output line: inactive

Input line: Outcome? `COc1ccc(S(=O)(=O)c2ccc(F)cc2)cc1`
Output line: inactive

Input line: What did the test return for `CCOC(C)=N` ?
Output line: inactive

Input line: Any idea what this test logged for `Oc1ccc(O)c(-c2ccccc2)c1` ?
Output line: inactive

Input line: For this molecule, state the assay outcome: `CCOP(=O)(OCC)/C(C#N)=C/c1c(C)[nH]c2ccccc12`
Output line: inactive

Input line: What outcome does the record of this test show for `CCC/C(=N/NC(N)=O)c1ccco1` ?
Output line: inactive

Input line: Status in this test for `CCCCCCCCCCCCCCCCC(=O)O` ?
Output line: inactive

Input line: Would you mind telling me which call this test gave `Nc1c(Cl)cc2c(c1Br)C(=O)c1ccccc1C2=O` ?
Output line: inactive

Input line: Status in this test for `COCCNC(C)=O` ?
Output line: inactive

Input line: Could you kindly confirm the outcome this assay logged for `CC(C)(C)OC(=O)c1ccc(NCc2cc(O)ccc2O)cc1` ?
Output line: active

Input line: Which result was noted for this molecule in the test: `O=[N+]([O-])c1cccc(N=Cc2ccccc2)c1`
Output line: inactive

Input line: For this molecule, state the assay outcome: `N#Cc1c(N)nc2c(c(-c3ccc(Cl)cc3)nn2-c2ccccc2)c1C#N`
Output line: inactive

Input line: Write down the call the test reported for this molecule. Item: `ON=C(C1CCCCC1)C1CCCCC1`
Output line: inactive

Input line: Could you kindly confirm the outcome this assay logged for `CC(C)(C)OC(=O)NCCc1ccc(N)cc1` ?
Output line: inactive

Input line: Query: recorded result category for `COc1ccc2nccc(Cl)c2c1` in this test
Output line: inactive

====

Tested on: HCT-116 colon
Test: NCI-60 one-dose screen, 48 h (100 = growth as untreated, 0 = no growth, -100 = all killed)
Conditions: 10 µM unless noted
Compounds without any hit were thinned out: in the full panel of roughly 83,000, 20% have a hit.
Assign growth to each entry below.
Report only the number, with the unit % understood.

Input line: Look up growth: `CCN(CC)C(=S)SCCO`
Output line: 107

Input line: Name the reported growth value associated with the compound `ON=C(C1CCCCC1)C1CCCCC1`
Output line: 100

Input line: # growth lookup, item `Cc1cc(=NO)cc(C)n1O`
Output line: 97.3

Input line: Can you share its growth? I mean this compound: `CC(=O)/C(N=Nc1ccc(S(=O)(=O)c2ccc(N=N/C(C(C)=O)=C(/C)O)cc2)cc1)=C(\C)O`
Output line: 93.2

Input line: What growth value was documented for this compound, `Cc1cc2ccccc2c2cc3ccccc3cc12` ?
Output line: 93.8

Input line: Give the measured growth of CN(C)CC(CN(C)C)C(O)c1ccccc1 (stereo not drawn) .
Output line: 101

Input line: Look at this compound and give its reported growth. `O=C(O)c1cc(=O)[nH]c(=O)[nH]1`
Output line: 107

Input line: Please look up its growth: `O=C(O)Cc1cc(=O)[nH]n(-c2ccccc2)c1=O`
Output line: 101

Measured values drawn from PubChem BioAssay (NCI) for this set.
